System Name: Melanocortin receptor 4 (Homo sapiens)
Test Protocol: MC4R antagonists of cAMP signaling, primary screen, cell-based, TR-FRET, antagonist arm of biased-ligand search (AID 540295);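 further: 0% = Melanotan II alone and 100% = Melanotan II plus saturating MCL0020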
Condition Summary: MC4R-expressing cells, MTII-stimulated cAMP, LANCE TR-FRET; at 6.5 µM; active compounds read high
In all, about 360,000 compounds went through this assay and about 1,700 (0.47%) were called active. Many of the other results were omitted from the sample, so actives are more common in it than they were.
Quantity Measured: inhibition (%)
Numbers only, in %.

Hi, could you look up inhibition for each item in my list?
1. Cc1ccc(C)c(NS(=O)(=O)c2ccc(OCC(=O)NCc3cccnc3)cc2)c1
2. COc1ccc(S(=O)(=O)N2CCSCC2)cc1
3. CC1=NN(C(C)C)C(=O)C1
4. Cc1ccc(NS(=O)(=O)c2ccc(C)c(NC(=O)COc3ccc4ccccc4c3)c2)c(C)c1
5. CN(C)C(CNC(=O)CCCOc1ccccc1)c1ccco1 (stereo unspecified)

-2.79
2.98
6.17
31.4
29.7

Hi, could you look up inhibition for each item in my list?
1. Cc1ccc(OCC(=O)Nc2cccc3c2CCCC3)cc1C
2. O=C(O)C(=Cc1ccc([N+](=O)[O-])cc1)CCc1ccccc1
3. COc1cccc(-c2cc(NC(C)=O)c3ncc(-c4cccc(C(C)=O)c4)n3c2)c1
4. COC(=O)c1ccc(CSc2ccc(S(=O)(=O)N3CCCCC3)cn2)cc1
5. Cc1ccc(C)c(NC(=O)CN(C)C(=O)COc2ccc3ccccc3c2)c1

1. 5.28
2. -2.43
3. 8.07
4. 0.99
5. 2.76

// sample "CN(C)/C=C(/C(=O)c1ccc(F)cc1)S(=O)(=O)c1ccc(F)cc1" , its inhibition was -0.11

---

System Name: Melanocortin receptor 4 (Homo sapiens)
Test Protocol: MC4R antagonists of cAMP signaling, primary screen, cell-based, TR-FRET, antagonist arm of biased-ligand search (AID 540295);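 further: 0% = Melanotan II alone and 100% = Melanotan II plus saturating MCL0020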
Condition Summary: MC4R-expressing cells, MTII-stimulated cAMP, LANCE TR-FRET; at 6.5 µM
Out of some 360,000 compounds screened, about 1,700 (0.47%) were called active.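 Rule for the calls: active = inhibition above its plate's cutoff, the mean of tested wells on that plate plus 3 SD (cut at about 29% in these data); inactive = the rest.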 Only a selection was taken, and actives are over-represented in it overall.
Assign a class; possible classes are active, inactive

Worked examples follow.
- Compound: "O=C(CN1CCCSc2ccccc21)N1CCN(S(=O)(=O)c2cccc(F)c2)CC1"
  Category Label: "inactive"
- Compound: "Brc1ccc(CN2CC[C@H]3C=CCc4cccc(c43)C2)cc1"
  Category Label: "inactive"
- Compound: "CNC(=O)C1CN(C(=O)c2cccc(S(=O)(=O)N3CCc4ccccc43)c2)c2ccccc2O1 (stereo not given)"
  Category Label: "inactive"

Which result was noted for this compound in the test: "CCN(CCCNC(=O)C1CCN(S(=O)(=O)c2cnc[nH]2)CC1)c1ccccc1"
inactive

Which result was noted for this compound in the test: "NC1=NC(=O)S/C1=C\c1ccc(O)cc1"
inactive

Which result was noted for this compound in the test: Cc1ccc(NC(=O)C2CC2c2ccccc2)cc1 (stereo not given)
inactive

Which result was noted for this compound in the test: "COC(=O)c1c(C)[nH]c(C)c1-c1ccc([N+](=O)[O-])cc1"
inactive

Which result was noted for this compound in the test: COC(=O)C1=C(C(=O)OC)C(c2cc([N+](=O)[O-])ccc2O)c2sc(=O)[nH]c2S1 (stereo not given)
active

Which result was noted for this compound in the test: "Cc1cc(-n2cnc(-c3cn(C)nc3C)n2)no1"
inactive

Which result was noted for this compound in the test: CC(CNc1ccc([N+](=O)[O-])c2cccnc12)Nc1c([N+](=O)[O-])cc(C(F)(F)F)cc1[N+](=O)[O-] (stereo not given)
inactive

---

Kindly supply the reported inhibition values for the records listed here.
System Name: Melanocortin receptor 4 (Homo sapiens)
Test Protocol: MC4R antagonists of cAMP signaling, primary screen, cell-based, TR-FRET, antagonist arm of biased-ligand search (AID 540295);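 further: 0% = Melanotan II alone and 100% = Melanotan II plus saturating MCL0020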
Condition Summary: MC4R-expressing cells, MTII-stimulated cAMP, LANCE TR-FRET; at 6.5 µM; active compounds read high
Among all 360,000 compounds or so, about 1,700 (0.47%) were called active. This excerpt belongs to a sample that is enriched for actives.
Give bare numbers, in %.

Here are 8 molecules together with their reported answers.
- Molecule: "CCOC(=O)N1CCN(C(=O)c2ccccc2N(Cc2ccccc2)S(=O)(=O)c2ccc(OC)cc2)CC1"
  Assay Result: -11
- Molecule: "Cc1cc(C)cc(NC(=S)NCCc2c[nH]c3ccccc23)c1"
  Assay Result: 7.21
- Molecule: "NC1=NC2(CCCCC2)N(c2ccc(F)cc2F)C(N)=N1"
  Assay Result: 1.15
- Molecule: "COc1ccc(/C=N/OCC(=O)N(Cc2ccccc2)c2ccccc2C(=O)O)cc1"
  Assay Result: 32.2
- Molecule: "COc1ccc(C(=O)N2CCCCC2c2cc(C(=O)Nc3ccc(F)c(Cl)c3)no2)cc1 (stereo unspecified)"
  Assay Result: 16.2
- Molecule: "Cc1ccccc1N1CC(C(=O)Nc2ccc3c(c2)OCO3)CC1=O (stereo unspecified)"
  Assay Result: 8.22
- Molecule: "COc1cc(C(=O)NCc2ccc(-n3cccc3)cc2)cc(OC)c1OC"
  Assay Result: 5.76
- Molecule: "Cc1cccc(CN2CCC(CNC(=O)Nc3ccc(F)c(Cl)c3)CC2)c1"
  Assay Result: 1.8

Hi, could you look up inhibition for each item in my list?
1. O=C(NCCc1c[nH]c2ccccc12)c1cc2ccccc2oc1=O
2. O=C(Nc1nnc(Cc2ccccc2)s1)c1cnccn1
3. CCCC/C(C)=N/NC(=O)NC1CCCCC1
4. Cc1ccccc1-n1nnnc1SCCCC(=O)c1ccc(F)cc1
5. Cc1c(Cl)cccc1NC(=O)[C@@]1(CC(=O)O)CC(/C=C/c2ccccc2)=NO1
6. C=CCn1c2ccccc2c2nnc(SCc3[nH]c(=O)[nH]c3C(=O)CCCCC(=O)OCC)nc21

1. -0.76
2. 20.4
3. 6.08
4. 0.07
5. 38.9
6. -12.2

Hi, could you look up inhibition for each item in my list?
1. O=C(NCCc1c[nH]c2ccccc12)c1cccc(Br)c1
2. CN(C)C(=O)c1cccc(-c2cnc3c(NC=O)cc(-c4ccc(F)cc4)cn23)c1
3. Cc1c(Cl)cccc1NC(=S)NCC(O)c1ccccc1 (stereo unspecified)
4. O=C(O[C@@H]1[C@H](Cc2ccccc2)NS(=O)(=O)[C@H]2C[C@@H]3C=C[C@]12O3)c1ccccc1Br
5. COc1ccc(Cl)cc1NC(=O)NCC1CCN(Cc2ccccc2F)CC1
6. O=C(Nc1nnc(Cc2ccc(Cl)cc2)s1)c1ccncc1
7. NC1=NC(=O)C(Cc2cccc(Cl)c2)S1 (stereo unspecified)

[31.5, -2.24, 3.92, 12, 3.98, 11.2, 6.88]

---

System Name: Melanocortin receptor 4 (Homo sapiens) (UniProt P32245)
Sequence (P32245 whole entry, looked up): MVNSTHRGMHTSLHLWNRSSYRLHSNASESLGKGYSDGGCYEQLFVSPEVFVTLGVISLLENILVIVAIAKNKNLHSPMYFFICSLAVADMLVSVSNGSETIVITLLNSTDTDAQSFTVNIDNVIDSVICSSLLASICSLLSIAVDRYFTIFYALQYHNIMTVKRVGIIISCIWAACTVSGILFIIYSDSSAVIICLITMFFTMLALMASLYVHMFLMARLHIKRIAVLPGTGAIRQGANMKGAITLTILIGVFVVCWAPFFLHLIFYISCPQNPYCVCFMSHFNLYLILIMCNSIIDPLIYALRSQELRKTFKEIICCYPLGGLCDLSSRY
Test Protocol: MC4R antagonists of cAMP signaling, primary screen, cell-based, TR-FRET, antagonist arm of biased-ligand search (AID 540295);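 further: 0% = Melanotan II alone and 100% = Melanotan II plus saturating MCL0020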
Condition Summary: MC4R-expressing cells, MTII-stimulated cAMP, LANCE TR-FRET; at 6.5 µM; active compounds read high
Hit rate of the full screen: of about 360,000 compounds, about 1,700 (0.47%) were called active. This excerpt belongs to a sample that is enriched for actives.
inhibition below 30% gives Not met; inhibition at or above it gives Met.

Worked examples follow.
- Molecule: "CC(C)Oc1ccc(/C=C(\\NC(=O)/C=C/c2ccco2)C(=O)NCCc2nc3ccccc3[nH]2)cc1"
  Category Label: "Not met"
- Molecule: "CCCCC1N2CC3([N+](=O)[O-])CN1CC([N+](=O)[O-])(C2)C3(C)C (stereo not drawn)"
  Category Label: "Not met"
- Molecule: "Cc1csc(CN(C)C(=O)CC2C(=O)NCCN2CC(C)(C)C)n1 (stereo not drawn)"
  Category Label: "Not met"
- Molecule: "CCOc1ccc(CCNC(=O)CN2C(=O)NC3(CCc4ccccc43)C2=O)cc1OCC (stereo not drawn)"
  Category Label: "Not met"
- Molecule: "CCOC(=O)c1c(C(C#N)C#N)cc(C)nc1C"
  Category Label: "Not met"
- Molecule: "CC(NC(=O)COc1ccccc1)C(=O)NC1=NCCS1 (stereo not drawn)"
  Category Label: "Not met"

inhibition >= 30% for "CCCCOC(=O)CNc1nnc(SCC(=O)OCC)[nH]c1=O" ?
Met

inhibition >= 30% for CCCCCCCC(=O)OC(CN1CCCCCC1)CN1CCCC1=O (stereo not drawn) ?
Not met

inhibition >= 30% for "CCCCCOc1ccc(/C=C/C(=O)NCCc2nc3ccccc3[nH]2)cc1OC" ?
Not met

inhibition >= 30% for "O=C(COC(=O)[C@H](Cc1ccccc1)NC(=O)c1cccs1)Nc1cc(F)ccc1F" ?
Met

inhibition >= 30% for "O=C(Cc1ccccc1)Nc1c(C(=O)N2CCCCCC2)cnn1-c1ccccc1" ?
Not met

inhibition >= 30% for CCOC(=O)C(C)n1cnc2scc(-c3ccc(C)c(C)c3)c2c1=O (stereo not drawn) ?
Not met

These entries and their values trace back to PubChem BioAssay AID540295.
